target: HIV-1 protease (Human immunodeficiency virus type 1 group M subtype B, UniProt P04585); assay: biochemical; settings: HIV-1 protease; upper line of each compound's entry; read-out: Ki (enzyme)
pKi: −log10 of the molar value.
So I've got a bunch of compounds here, and I need their pKi values.

* CON(C)C(=O)CNc1cccc(S(=O)(=O)N(CC(O)C(Cc2ccccc2)NC(=O)OC2COC3OCCC23)OC2CCCC2)c1 (mixture of isomers) | > 9.00
* COc1ccc(S(=O)(=O)N(C[C@@H](O)[C@H](Cc2ccccc2)NC(=O)OC(C)(C)C)OC2CCOCC2)cc1 | 8.00 to 9.00
* COc1ccc(S(=O)(=O)N(C[C@@H](O)[C@H](Cc2ccccc2)NC(=O)O[C@H]2CCOC2)OC2CCOCC2)cc1 | 8.00 to 9.00
* NC(=O)C[C@H](NC(=O)c1ccc2ccccc2n1)C(=O)N[C@@H](Cc1ccccc1)[C@H](O)CN(OC1CCCC1)S(=O)(=O)c1ccc2cn[nH]c2c1 | > 9.00
* O=C(N[C@@H](Cc1ccccc1)[C@H](O)CN(OC1CCCC1)S(=O)(=O)c1cccc(OCCO)c1)O[C@H]1CO[C@H]2OCC[C@H]21 | > 9.00
* COc1cccc(S(=O)(=O)N(C[C@@H](O)[C@H](Cc2ccccc2)NC(=O)O[C@H]2CO[C@H]3OCC[C@H]32)OC2CCCC2)c1 | > 9.00
* COc1ccc(S(=O)(=O)N(C[C@@H](O)[C@H](Cc2ccccc2)NC(=O)C(C)CS(C)(=O)=O)OC2CCCC2)cc1 (stereo partly drawn) | < 7.00
* O=C(N[C@@H](Cc1ccccc1)[C@H](O)CN(OC1CCCCC1)S(=O)(=O)c1ccc(O)cc1)O[C@H]1CO[C@H]2OCC[C@H]21 | > 9.00
* CC(C)ON(C[C@@H](O)[C@H](Cc1ccccc1)NC(=O)OC(C)(C)C)S(=O)(=O)c1ccc2[nH]cnc2c1 | 7.00 to 8.00
* COC(=O)Nc1nc2cc(S(=O)(=O)N(C[C@@H](O)[C@H](Cc3ccccc3)NC(=O)OC3CO[C@H]4OCC[C@@H]34)OC3CCCC3)ccc2[nH]1 (mixture of isomers) | > 9.00

Give pKi for each listed item.
1. CNc1cccc(S(=O)(=O)N(C[C@@H](OP(=O)(O)O)[C@H](Cc2ccccc2)NC(=O)O[C@H]2CO[C@H]3OCC[C@H]32)OC2CCCC2)c1
2. Nc1nc2ccc(S(=O)(=O)N(C[C@@H](O)[C@H](Cc3ccccc3)NC(=O)OC3COCOC3)OC3CCCC3)cc2s1

### Response
< 7.00
> 9.00

----------
So I've got a bunch of compounds here, and I need their pIC50 values.
test system: HIV-1 (strain IIIB); experiment: microbe, parasite or virus in culture; format: cell-based; settings: Human immunodeficiency virus 1, 120 h; MT4 cells infected with HIV-1 strain IIIB, 5 days; lower line of each compound's entry; read-out: IC50 (MT-4 cells)
pIC50: −log10 of the molar value.

Give pIC50 for each listed item.
1. COc1ccc(S(=O)(=O)N(C[C@@H](O)[C@H](Cc2ccccc2)NC(=O)OC(C)(C)C)OC2CCOCC2)cc1
2. O=C(N[C@@H](Cc1ccccc1)[C@H](O)CN(OC1CCOCC1)S(=O)(=O)c1ccc(O)cc1)O[C@H]1CO[C@H]2OCC[C@H]21

### Response
< 6.00
≥ 7.00

Give pIC50 for each listed item.
1. COc1ccc(S(=O)(=O)N(C[C@@H](O)[C@H](Cc2ccccc2)NC(=O)O[C@H]2CCOC2)OC2CCCCC2)cc1
2. Nc1ccc(S(=O)(=O)N(C[C@@H](O)[C@H](Cc2ccccc2)NC(=O)O[C@H]2CO[C@H]3OCC[C@H]32)OC2CCCCC2)cc1
3. CCC(CC)ON(C[C@@H](O)[C@H](Cc1ccccc1)NC(=O)O[C@H]1CO[C@H]2OCC[C@H]21)S(=O)(=O)c1ccc(O)cc1
4. Nc1cccc(S(=O)(=O)N(C[C@@H](O)[C@H](Cc2ccccc2)NC(=O)O[C@H]2CCOC2)OC2CCCC2)c1

### Response
1. < 6.00
2. ≥ 7.00
3. ≥ 7.00
4. 6.00 to 6.30
